Would you kindly list pIC50 for each of these compounds?
# Test system: SKBR-3
# test.name: MTT anti-proliferation assay
# Assay type: cell-based, human
# particulars: Homo sapiens, SK-BR-3, 24 h treatment
Answer as the number alone; pIC50 is minus log10 of concentration in mol/L.

Task: Using known records, supply pIC50 for COc1ccccc1-c1nnc(SCC(=O)O[C@H](CC=C(C)C)C2=CC(=O)c3c(O)ccc(O)c3C2=O)o1
Result: 5.08

Task: Please look at this compound and report its pIC50: CC(C)=CC[C@@H](OC(=O)CSc1nnc(-c2cccc(F)c2)o1)C1=CC(=O)c2c(O)ccc(O)c2C1=O
Result: 4.98

Task: Give pIC50 for the following compound: CC(C)=CC[C@@H](OC(=O)CSc1nnc(-c2ccccc2Br)o1)C1=CC(=O)c2c(O)ccc(O)c2C1=O
Result: 5.01

Task: Tell us which pIC50 value is on record for CC(C)=CC[C@@H](OC(=O)CSc1nnc(-c2ccc(F)cc2)o1)C1=CC(=O)c2c(O)ccc(O)c2C1=O
Result: 5.05

Task: Supply measured pIC50 of CC(C)=CC[C@@H](OC(=O)CSc1nnc(-c2cccc(Br)c2)o1)C1=CC(=O)c2c(O)ccc(O)c2C1=O in your reply.
Result: 5.31

Task: Write down pIC50 measured for item CC(C)=CC[C@@H](OC(=O)CSc1nnc(-c2ccccc2)o1)C1=CC(=O)c2c(O)ccc(O)c2C1=O
Result: 4.94

Task: Kindly indicate its recorded pIC50. Item: CC(C)=CC[C@@H](OC(=O)CSc1nnc(-c2ccccc2Cl)o1)C1=CC(=O)c2c(O)ccc(O)c2C1=O
Result: 5.35

Task: Please report pIC50 for the following compound: COc1cccc(-c2nnc(SCC(=O)O[C@H](CC=C(C)C)C3=CC(=O)c4c(O)ccc(O)c4C3=O)o2)c1
Result: 5.16

Task: Identify measured pIC50 corresponding to CC(C)=CC[C@@H](OC(=O)CSc1nnc(-c2ccc(C)cc2)o1)C1=CC(=O)c2c(O)ccc(O)c2C1=O
Result: 5.44

Task: Dear colleague, please send me the reported pIC50 for CC(C)=CC[C@@H](OC(=O)CSc1nnc(-c2ccc(Br)cc2)o1)C1=CC(=O)c2c(O)ccc(O)c2C1=O when you can.
Result: 5.21

Task: Fill in pIC50 for record COc1cc(OC)cc(-c2nnc(SCC(=O)O[C@H](CC=C(C)C)C3=CC(=O)c4c(O)ccc(O)c4C3=O)o2)c1
Result: 5.50

Task: Identify the reported pIC50 for the following entry. CC(C)=CC[C@@H](OC(=O)CSc1nnc(-c2ccccc2F)o1)C1=CC(=O)c2c(O)ccc(O)c2C1=O
Result: 5.03

Task: Return reported pIC50. Input compound: CC(C)=CC[C@@H](O)C1=CC(=O)c2c(O)ccc(O)c2C1=O
Result: 5.43

Task: Give me measured pIC50, please, for this compound: CC(C)=CC[C@@H](OC(=O)CSc1nnc(-c2ccc(Cl)cc2)o1)C1=CC(=O)c2c(O)ccc(O)c2C1=O
Result: 5.10

Task: Identify measured pIC50 corresponding to CC(C)=CC[C@@H](OC(=O)CSc1nnc(-c2cccc(Cl)c2)o1)C1=CC(=O)c2c(O)ccc(O)c2C1=O
Result: 5.12
